Just for reference, ChEMBL document CHEMBL1141234 is where these values come from.

Below: a set of entries, each annotated with reported Emax.
- system under test: 5-hydroxytryptamine receptor 1B (Homo sapiens, UniProt P28222)
- Sequence (P28222 whole entry): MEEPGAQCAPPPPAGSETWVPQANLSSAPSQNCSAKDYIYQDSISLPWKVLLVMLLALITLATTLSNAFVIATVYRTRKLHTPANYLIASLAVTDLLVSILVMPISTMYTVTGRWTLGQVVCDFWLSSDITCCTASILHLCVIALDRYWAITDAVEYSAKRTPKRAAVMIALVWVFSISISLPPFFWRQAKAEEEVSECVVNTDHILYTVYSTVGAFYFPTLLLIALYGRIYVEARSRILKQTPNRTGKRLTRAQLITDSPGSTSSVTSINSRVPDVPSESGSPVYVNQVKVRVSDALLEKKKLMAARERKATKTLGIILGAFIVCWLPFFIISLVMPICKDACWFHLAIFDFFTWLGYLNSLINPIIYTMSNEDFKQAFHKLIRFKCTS
- assay summary: Intrinsic activity for 5HT1B receptor in FLIPR assay
- Assay type: functional

{"columns": ["input smiles", "unit", "inequality symbol", "Emax"],
 "data": [
  ["CC(C)Oc1ccccc1N1CCN(CCn2cnc3sc4c(c3c2=O)CCN(C)C4)CC1", "%", "<", 20],
  ["CN1CCc2c(sc3ncn(CCN4CCN(c5ncnc6ccccc56)CC4)c(=O)c23)C1", "%", ">", 80],
  ["COc1c(Cl)cc(Cl)cc1N1CCN(CCn2cnc3sc4c(c3c2=O)CCN(C)C4)CC1", "%", "=", 20],
  ["COc1ccc(OC)c(N2CCN(CCn3cnc4sc5c(c4c3=O)CCN(C)C5)CC2)c1", "%", "<", 20],
  ["CN1CCc2c(sc3ncn(CCN4CCN(c5cccc6cnccc56)CC4)c(=O)c23)C1", "%", "=", 20],
  ["CN1CCc2c(sc3ncn(CCN4CCN(c5cccc6ncccc56)CC4)c(=O)c23)C1", "%", "=", 20],
  ["COc1ccc(C)cc1N1CCN(CCn2cnc3sc4c(c3c2=O)CCN(C)C4)CC1", "%", "<", 20],
  ["CN1CCc2c(sc3ncn(CCN4CCN(c5cccc6ccncc56)CC4)c(=O)c23)C1", "%", "=", 20],
  ["CN1CCc2c(sc3ncn(CCN4CCN(c5ccnc6ccccc56)CC4)c(=O)c23)C1", "%", "=", 9]
]}

* * *

- system under test: Adrenergic receptor alpha-1 (Homo sapiens, UniProt P35348+P25100+P35368)
- Sequence (P35348 whole entry): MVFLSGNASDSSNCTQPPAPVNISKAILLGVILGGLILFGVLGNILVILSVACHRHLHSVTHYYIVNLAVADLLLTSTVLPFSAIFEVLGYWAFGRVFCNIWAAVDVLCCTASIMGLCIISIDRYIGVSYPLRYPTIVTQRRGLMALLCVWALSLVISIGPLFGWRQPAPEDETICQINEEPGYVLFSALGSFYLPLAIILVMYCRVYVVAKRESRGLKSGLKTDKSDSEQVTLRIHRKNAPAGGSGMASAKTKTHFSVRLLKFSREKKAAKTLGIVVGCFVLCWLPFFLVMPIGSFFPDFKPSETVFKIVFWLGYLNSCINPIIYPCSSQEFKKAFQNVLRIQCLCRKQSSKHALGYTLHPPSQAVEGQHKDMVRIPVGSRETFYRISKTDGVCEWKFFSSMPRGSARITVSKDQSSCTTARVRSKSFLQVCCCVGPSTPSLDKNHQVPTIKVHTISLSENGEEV
- Sequence (P25100 whole entry): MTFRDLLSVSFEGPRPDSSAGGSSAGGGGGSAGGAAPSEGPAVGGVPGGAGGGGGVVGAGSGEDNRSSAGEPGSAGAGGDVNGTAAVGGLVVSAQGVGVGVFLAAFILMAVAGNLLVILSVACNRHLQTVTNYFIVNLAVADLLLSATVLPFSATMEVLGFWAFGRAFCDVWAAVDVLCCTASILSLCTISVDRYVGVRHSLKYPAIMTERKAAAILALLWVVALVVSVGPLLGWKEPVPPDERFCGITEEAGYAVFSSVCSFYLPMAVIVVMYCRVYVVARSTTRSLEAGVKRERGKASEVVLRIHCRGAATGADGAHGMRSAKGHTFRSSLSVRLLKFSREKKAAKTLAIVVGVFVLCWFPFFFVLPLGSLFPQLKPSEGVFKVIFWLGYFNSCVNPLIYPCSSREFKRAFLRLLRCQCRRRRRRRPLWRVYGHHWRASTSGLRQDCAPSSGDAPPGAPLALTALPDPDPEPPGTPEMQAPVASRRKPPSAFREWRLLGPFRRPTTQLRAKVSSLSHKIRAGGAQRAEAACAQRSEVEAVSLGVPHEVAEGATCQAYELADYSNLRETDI
- Sequence (P35368 whole entry): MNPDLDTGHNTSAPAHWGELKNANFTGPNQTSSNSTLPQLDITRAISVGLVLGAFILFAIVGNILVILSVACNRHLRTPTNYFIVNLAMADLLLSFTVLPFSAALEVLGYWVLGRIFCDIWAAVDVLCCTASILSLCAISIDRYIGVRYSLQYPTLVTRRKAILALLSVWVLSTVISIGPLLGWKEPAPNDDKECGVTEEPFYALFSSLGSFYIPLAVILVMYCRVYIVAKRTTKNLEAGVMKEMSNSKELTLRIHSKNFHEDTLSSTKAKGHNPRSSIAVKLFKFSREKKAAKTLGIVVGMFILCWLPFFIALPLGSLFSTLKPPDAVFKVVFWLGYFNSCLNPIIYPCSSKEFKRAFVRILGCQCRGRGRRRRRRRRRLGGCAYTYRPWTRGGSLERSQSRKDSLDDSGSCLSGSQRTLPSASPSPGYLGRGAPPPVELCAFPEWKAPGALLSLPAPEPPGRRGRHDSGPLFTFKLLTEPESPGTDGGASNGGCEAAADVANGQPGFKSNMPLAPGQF
- assay summary: Inhibitory activity against Adrenergic alpha-1 receptor
- Type: protein assay
log10 of Ki: recorded values
quantity kind: log10 of Ki (log10 of the value in nM)

{"columns": ["input smiles", "quantity kind", "test value"],
 "data": [
  ["COc1cc(Cl)ccc1N1CCN(CCn2cnc3sc4c(c3c2=O)CCN(C)C4)CC1", "log10 of Ki", -0.30],
  ["CN1CCc2c(sc3ncn(CCN4CCN(c5ccccc5C#N)CC4)c(=O)c23)C1", "log10 of Ki", 0.26],
  ["CN1CCc2c(sc3ncn(CCN4CCN(c5ccccc5OCC(C)(C)C)CC4)c(=O)c23)C1", "log10 of Ki", -0.70],
  ["CN1CCc2c(sc3ncn(CCN4CCN(c5ccccc5Cl)CC4)c(=O)c23)C1", "log10 of Ki", 0.00],
  ["COc1c(Cl)cccc1N1CCN(CCn2cnc3sc4c(c3c2=O)CCN(C)C4)CC1", "log10 of Ki", 0.85],
  ["COc1ccc(C)cc1N1CCN(CCn2cnc3sc4c(c3c2=O)CCN(C)C4)CC1", "log10 of Ki", 1.08],
  ["COc1ccc(Cl)cc1N1CCN(CCn2cnc3sc4c(c3c2=O)CCN(C)C4)CC1", "log10 of Ki", -1.00],
  ["CN1CCc2c(sc3ncn(CCN4CCN(c5ccccc5-c5ccccc5)CC4)c(=O)c23)C1", "log10 of Ki", 0.04],
  ["CN1CCc2c(sc3ncn(CCN4CCN(c5cccc6cnccc56)CC4)c(=O)c23)C1", "log10 of Ki", 2.11]
]}
